All values here come from patent US20190002511A1.

- SYSTEM TESTED: human α-thrombin (recombinant) (human, UniProt P00734 328-363; P00734 364-622)
- EXPERIMENTAL DETAILS: cell-based or functional assay
Strictly below 0.9 nM in IC50, inhibition of thrombin amidolytic activity: true (1). Otherwise: false (0).

SDEAVRAIPKMYSTAPPGDFEEIPDDAIEEGCCC (Ultravariegin with C-terminal GCCC) [UV015]; false (0)
MYSTAPPGDFEEIPDDAIEE (also called C-terminal cleavage product of ultravariegin) [UV011]; false (0)
SDEAVRAEPKMHKTAPPGDFEEIPDDAIEE [UV004]; true (1)
SDEAVRAIPKMYSQAPPGDFEEIPDDAIEE (Ultravariegin Thr14Gln) [UV013]; true (1)
MYSTAPPGDFEEIPDDAIEEGCCC (UV011 with C-terminal GCCC) [UV014]; false (0)
SDEAVRAIPKMYSTAPPGDFEEIPDDEIEE (Ultravariegin Ala27Glu) [UV012]; false (0)
